Values were extracted from PubChem BioAssay AID434987.

# System: M. tuberculosis H37Rv growth inhibition with meropenem
# experimentSummary: dose response, H37Rv, with and without meropenem (AID 434987);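 note: growth over 7 days at 37 °C before Alamar Blue read on day 9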
# appliedConditions: measured here: IC90 with meropenem
Each entry below carries its recorded IC90.
recordedMetric: IC90

1. N#C/C(C(=O)NCc1ccco1)=C1/SC=C(c2ccccc2)N1c1ccccc1 = > 100 µM
2. CCCCCCC(=O)Nc1nc(C)c(-c2csc(Nc3cc(Cl)ccc3OC)n2)s1 = > 100 µM
3. O=C(Oc1c(-c2ccccc2Cl)oc2ccccc2c1=O)c1ccc(Cl)cc1 = > 50 µM

----------
Each entry below carries its recorded IC90.
# Test system: M. tuberculosis H37Rv growth inhibition with meropenem
# experimentSummary: dose response, H37Rv, with and without meropenem (AID 434987);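 note: growth over 7 days at 37 °C before Alamar Blue read on day 9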
# appliedConditions: measured here: IC90 with meropenem
recordedMetric: IC90

1) CCOc1ccc(NC(=O)/C(C#N)=C/c2cn(CC(=O)O)c3ccccc23)cc1 = > 100 µM
2) Cc1ccc(Cn2c(NC(=O)c3ccco3)nc3ccccc32)cc1 = > 100 µM
3) CCSc1nnc(NC(=O)Cn2cnc3ccccc3c2=O)s1 = > 100 µM
4) COc1cc(NC(=O)c2cc(-c3cccnc3)nc3ccc(Br)cc23)cc(OC)c1 = > 100 µM
5) O=c1[nH]c(/C=C/c2cccc(Br)c2)nc2ccccc12 = > 100 µM
6) S=C(NN=C1C2CC3CC(C2)CC1C3)Nc1ccccc1 = 51.4 µM
7) O=C(CCl)N(c1ccccc1)C1CCS(=O)(=O)C1 (stereo not given) = 13.9 µM
8) CCCCN(CC)S(=O)(=O)c1ccc(C(=O)Nc2nnc(CSC)o2)cc1 = 31.7 µM
9) Cc1ccc(NC(=O)O/N=C/c2c(C)nn(C(C)(C)C)c2C)cc1Cl = > 100 µM
10) COc1ccccc1C(=O)Nc1sc2c(c1C(=O)NCc1ccco1)CCCC2 = > 100 µM
11) C=CCn1c(SCc2ccc(C(=O)Nc3nccs3)cc2)nnc1-c1ccc(C)c(Cl)c1 = > 100 µM
12) N/C(=N\c1nc2ccccc2o1)NC(=O)c1ccccc1NC(=O)c1ccccc1 = > 100 µM
13) O=C(CCN1CCOCC1)c1ccc(N2CCCCC2)cc1 = 72.7 µM
14) CCOC(=O)c1cc(-c2ccc(C)cc2)n(CCC(=O)N2CCN(c3ccccn3)CC2)c1C = > 100 µM
15) CC[C@@]1(c2ccccc2OC)C(=O)N(C(=O)OC)N1C(=O)OC = > 100 µM
16) COc1ccc(C(=O)/C=C/c2ccc(O)cc2)c(O)c1CC=C(C)C = 75.1 µM
17) COc1ccc([C@H]2CC(=O)C=C(/C=C/c3ccccc3)C2)cc1OC = > 100 µM
18) CCC1CCCCN1C(=O)CSc1nnc(-c2ccc(Cl)s2)o1 (stereo not given) = > 100 µM
19) C[C@H]1C=CC(=O)O[C@H]1c1ccccc1 = 49.5 µM
20) Cc1[nH]c2c(C)cccc2c1CCNC(=O)c1ccc2c(c1[N+](=O)[O-])C(=O)c1ccccc1C2=O = > 100 µM
21) CCOc1cccc(=O)c2c(C)n(Cc3ccccc3)c(C)c12 = > 100 µM
22) Cc1ccc(C(=O)NCC2(c3ccccc3)CCCC2)cc1 = > 100 µM
23) O=C(Nc1ccc(S(=O)(=O)N2CCCCC2)cc1)C1CCCN(C(=O)c2ccc(Cl)cc2)C1 (stereo not given) = > 100 µM
24) CC/C(=N\NC(=O)c1ccc(N(C)C)cc1)c1ccccc1 = > 100 µM
25) COc1ccc(-c2cc(=Nc3ccc(C)cc3)c3ccccc3o2)cc1 = 98.3 µM
26) CC(C)(C)c1ccc(OCC(=O)N/N=C/c2cc(Br)ccc2OC(=O)c2ccco2)cc1 = > 100 µM
27) O=C(/C=C/c1cccnc1)c1ccc(O)cc1 = 50.4 µM
28) Cc1cc2ccccc2n1CCNC(=O)COc1ccccc1 = 42.8 µM
29) CSc1ccc(CCNC(=O)c2cc(C)nn2-c2ccccc2)cc1 = > 100 µM
30) CCCc1cc(NC(=O)COC(=O)c2nccnc2N)n(-c2ccccc2)n1 = 50.8 µM
